Entries and their EC50
molecular target: human FXR (Homo sapiens, UniProt Q96RI1); assay: transient human FXR/Gal4-luciferase reporter assay (HLE GAL-FXR); conditions: FXR EC50 (nM), Gal4-hFXR fusion reporter, HEK293 cells; Table 1
Sequence (Q96RI1 262-486 limits assumed): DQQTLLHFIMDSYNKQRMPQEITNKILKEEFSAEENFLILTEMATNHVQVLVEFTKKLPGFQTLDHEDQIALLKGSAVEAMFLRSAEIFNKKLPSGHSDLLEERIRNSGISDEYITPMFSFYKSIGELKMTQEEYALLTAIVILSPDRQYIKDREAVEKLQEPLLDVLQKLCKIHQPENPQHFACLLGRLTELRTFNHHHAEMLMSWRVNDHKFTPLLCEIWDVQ
Reply numerically in nM, unit not repeated.

Some molecules with recorded EC50:
{"molecule": "COCc1cc(C(=O)O)nc2ccc(N3CC(/C=C/c4c(-c5ccccc5C(F)(F)F)noc4C4CC4)C3)cc12", "target-desc": "human FXR (Homo sapiens, UniProt Q96RI1)", "outcome-measure": "EC50", "val": 228}
{"molecule": "COc1cc(C(=O)O)nc2ccc(N3CC(/C=C/c4c(-c5ccccc5OC(F)(F)F)noc4C4CC4)C3)cc12", "target-desc": "human FXR (Homo sapiens, UniProt Q96RI1)", "outcome-measure": "EC50", "val": 216}
{"molecule": "COc1ccc(COc2cc(C(=O)O)nc3ccc(N4CC5C(/C=C/c6c(-c7c(Cl)cncc7Cl)noc6C6CC6)C5C4)cc23)cc1 (stereo not shown)", "target-desc": "human FXR (Homo sapiens, UniProt Q96RI1)", "outcome-measure": "EC50", "val": 240}
{"molecule": "O=C(O)c1cc(C(F)(F)F)c2cc(N3CCC(/C=C/c4c(-c5ccncc5Cl)noc4C4CC4)CC3)ccc2n1", "target-desc": "human FXR (Homo sapiens, UniProt Q96RI1)", "outcome-measure": "EC50", "val": 215}
{"molecule": "COc1cc(C(=O)O)nc2sc(N3CC4C(/C=C/c5c(-c6ccccc6C(F)(F)F)noc5C5CC5)C4C3)nc12 (stereo not shown)", "target-desc": "human FXR (Homo sapiens, UniProt Q96RI1)", "outcome-measure": "EC50", "val": 163}

input: Request the reported EC50 associated with COc1cc(C(=O)O)nc2ccc(N3CC(/C=C/c4c(-c5ccccc5C(F)(F)F)noc4C4CC4)C3)nc12
output: 375

input: Given the molecule O=C(O)c1cc(C(F)(F)F)c2cc(N3CCC(/C=C/c4c(-c5c(Cl)cncc5Cl)noc4C4CC4)CC3)ccc2n1 , what is its reported EC50?
output: 42

Hello, the source for this data is patent US11168079B2, in case you need it.
